Entries and their Kd values follow.
Target: T1, Cbf5p;Nop10p;Gar1p (Saccharomyces cerevisiae;Saccharomyces …, UniProt P33322;Q6Q547;P28007 1-483;1-58;1-205, ||)
T1 sequence 1: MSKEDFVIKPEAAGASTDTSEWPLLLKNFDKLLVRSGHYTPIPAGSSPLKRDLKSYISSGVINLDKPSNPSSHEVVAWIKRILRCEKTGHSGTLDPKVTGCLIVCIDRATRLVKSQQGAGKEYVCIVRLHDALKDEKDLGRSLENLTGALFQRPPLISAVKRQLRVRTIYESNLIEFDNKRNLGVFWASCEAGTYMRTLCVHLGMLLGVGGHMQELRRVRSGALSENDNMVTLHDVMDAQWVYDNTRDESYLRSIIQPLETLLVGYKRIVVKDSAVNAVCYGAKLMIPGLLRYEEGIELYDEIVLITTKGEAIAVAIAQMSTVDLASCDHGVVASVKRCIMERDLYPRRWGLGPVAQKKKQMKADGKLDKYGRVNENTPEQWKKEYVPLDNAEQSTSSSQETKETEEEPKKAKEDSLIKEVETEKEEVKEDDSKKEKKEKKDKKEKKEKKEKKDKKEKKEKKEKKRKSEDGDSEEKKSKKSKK
T1 sequence 2: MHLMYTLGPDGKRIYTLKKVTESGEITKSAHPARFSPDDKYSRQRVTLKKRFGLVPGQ
T1 sequence 3: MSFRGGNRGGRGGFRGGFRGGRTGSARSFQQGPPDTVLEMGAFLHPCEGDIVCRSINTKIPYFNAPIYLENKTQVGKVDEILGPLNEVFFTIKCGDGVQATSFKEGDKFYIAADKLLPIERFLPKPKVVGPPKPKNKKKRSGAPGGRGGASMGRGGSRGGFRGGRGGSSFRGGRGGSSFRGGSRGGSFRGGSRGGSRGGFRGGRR
Test: filter binding
Reply with just the number (in µM).

# Binder, Value
records = [
    ("GGGGACAACUGGCUUGUGGCAGCCA (mixed) [snR34 guide + 5' substrate RNA]", 0.05),
]

Consider now this further binder.
Query: In one line, give reported Kd of the entry GGGACGUCGGCUCUUCCUAUCAUACC (mixed) [snR34 guide + 3' substrate RNA] .
Response: 0.09
